# assay info: in vitro
# measurement setup: human, microsomes, pH 7.4
observation type: half-life

Query: half-life; subject: C=C(C)[C@@H]1CC[C@]2(C(=O)N3CCC(CCCC(=O)O)CC3)CC[C@]3(C)[C@H](CC[C@@H]4[C@@]5(C)CC[C@H](O)C(C)(C)[C@@H]5CC[C@]43C)[C@@H]12
~2.08 h
